experimentalTarget: T1, GRIP1_7, Q9Y3R0
T1 sequence (Q9Y3R0 999-1096, limits assumed, looked up): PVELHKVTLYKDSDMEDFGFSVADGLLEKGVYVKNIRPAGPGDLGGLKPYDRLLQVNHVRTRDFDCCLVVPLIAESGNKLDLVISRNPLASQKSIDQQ
experimentDescription: holdup assay
Design: key: below the threshold = too weak to quantify, mostly under pKd 3.1 to 4
conditionsUsed: plain residues with an end cap or a label only (N-terminal biotin on a linker: ado-ado)
parameterMeasured: pKd

## Input State the recorded pKd for this entry: NKSEPFLTWL [WWTR1, Q9GZV5]
## Output below the threshold

## Input State the recorded pKd for this entry: ATKDKKITTV [EXOC4, Q96A65]
## Output 3.53

## Input State the recorded pKd for this entry: AHGSTRDQSI [KCNB1, Q14721]
## Output 3.48

## Input State the recorded pKd for this entry: FLVTEFNVML [DFNB31, Q9P202]
## Output below the threshold

## Input State the recorded pKd for this entry: QLKSGRDSTV [TMEM178A, Q8NBL3]
## Output below the threshold

Others:
## Input State the recorded pKd for this entry: GDSSRKEYFI [GYPC, P04921]
## Output 3.76

## Input State the recorded pKd for this entry: IQISELETNV [SLC1A7, O00341]
## Output below the threshold

## Input State the recorded pKd for this entry: EKPIDSETKM [SLC1A3, P43003]
## Output below the threshold

Values from paper PMC9482650
